Here's a batch of molecules along with measured IC50 for Amyloid-beta precursor protein (Homo sapiens).
measured.quantity: IC50 (µM)

INSERT INTO measurements (chemical_string, assay_result) VALUES
  ('c1ccc(CCNc2ncnc3ccccc23)cc1', 11.9),
  ('Oc1nc(NCc2ccccc2)c2ccccc2n1', 0.27),
  ('COc1ccc(CCNc2nc(N)nc3ccccc23)cc1OC', 2.7),
  ('CC(=O)Nc1nc(NCc2ccccc2)c2ccccc2n1', 1.9),
  ('Clc1nc(NCc2ccccc2)c2ccccc2n1', 16.7),
  ('NC(=O)Nc1nc(NCc2ccccc2)c2ccccc2n1', 13.3),
  ('CCCNc1nc(NCCc2ccccc2)c2ccccc2n1', 4.4),
  ('COc1ccc(CNc2nc(NC3CC3)nc3ccccc23)cc1OC', 8.3),
  ('COc1ccc(CCNc2nc(NC3CC3)nc3ccccc23)cc1OC', 4.9),
  ('CCCNc1nc(NCc2ccc(OC)c(OC)c2)c2ccccc2n1', 1.7),
  ('COc1ccc(CNc2nc(NC(C)=O)nc3ccccc23)cc1OC', 3.1),
  ('COc1ccc(CCNc2ncnc3ccccc23)cc1OC', 12),
  ('c1ccc(CCNc2nc(NC3CC3)nc3ccccc23)cc1', 0.79);
